Where do the numbers come from? From patent US20220153862A1.

Target: T1, human Trophoblast cell surface antigen 2 (TROP2) (human, UniProt P09758 27-274, limits assumed)
T1 construct: Analyte in the SPR experiments and immunogen; also called human TROP2
T1 sequence: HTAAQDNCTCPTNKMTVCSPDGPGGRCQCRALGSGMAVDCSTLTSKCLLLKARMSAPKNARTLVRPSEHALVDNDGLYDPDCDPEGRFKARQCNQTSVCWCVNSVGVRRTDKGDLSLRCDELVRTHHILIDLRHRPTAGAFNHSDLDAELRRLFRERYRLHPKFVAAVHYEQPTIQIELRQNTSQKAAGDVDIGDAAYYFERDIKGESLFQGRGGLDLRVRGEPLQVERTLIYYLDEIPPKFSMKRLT
Assay: SPR affinity ranking, human TROP2
Output Criterion met for records whose koff is lower than 0.0001 s⁻¹, Criterion not met for records at or above 0.0001 s⁻¹.

# input Bench note: check whether HC2/LC3 (antibody, human IgG1, kappa, V domains shown, Humanized anti-TROP2 antibody) VH: QVQLVQSGAEVKKPGASVKVSCKASGYTFTDYSINWVRQAPGQGLEWMGVISTYYGDASYNQKFKGRVTMTRDTSTSTVYMELSSLRSEDTAVYYCARYGDGYNQFDYWGQGTLVTVSS VL: DIVMTQSPLSLPVTPGEPASISCRVSESVDSYGNNFMHWYLQKPGQSPQLLIYRASNLESGVPDRFSGSGSGTDFTLKISRVEAEDVGVYYCQQSYEDPYTFGGGTKVEIKR shows koff below 0.0001 s⁻¹
# output Criterion not met

# input Check if koff falls below 0.0001 s⁻¹ for HC2/LC4 (antibody, human IgG1, kappa, V domains shown, Humanized anti-TROP2 antibody) VH: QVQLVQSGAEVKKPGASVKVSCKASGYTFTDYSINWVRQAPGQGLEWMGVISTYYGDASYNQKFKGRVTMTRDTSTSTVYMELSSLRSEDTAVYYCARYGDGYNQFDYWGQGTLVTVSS VL: EIVLTQSPATLSLSPGERATLSCRVSESVDSYGNNFMHWYQQKPGQAPRLLIYRASNLESGIPARFSGSGSGTDFTLTISSLEPEDFAVYYCQQSYEDPYTFGGGTKVEIKR .
# output Criterion not met

# input Does this binder meet the criterion koff < 0.0001 s⁻¹? HC4/LC1 (antibody, human IgG1, kappa, V domains shown, Humanized anti-TROP2 antibody) VH: QVQLVQSGAEVKKPGSSVKVSCKASGYTFTDYSINWVRQAPGQGLEWMGVISTYYGDASYNQKFKGRVTITADESTSTAYMELSSLRSEDTAVYYCARYGDGYNQFDYWGQGTLVTVSS VL: DIVMTQSPDSLAVSLGERATINCRVSESVDSYGNNFMHWYQQKPGQPPKLLIYRASNLESGVPDRFSGSGSGTDFTLTISSLQAEDVAVYYCQQSYEDPYTFGQGTKLEIKR
# output Criterion met

# input Find out if reported koff for HC1/LC4 (antibody, human IgG1, kappa, V domains shown, Humanized anti-TROP2 antibody) VH: QVQLVQSGAEVKKPGASVKVSCKASGYTFTDYSINWVRQAPGQGLEWMGVISTYYGDASYNQKFKGRVTMTTDTSTSTAYMELRSLRSDDTAVYYCARYGDGYNQFDYWGQGTMVTVSS VL: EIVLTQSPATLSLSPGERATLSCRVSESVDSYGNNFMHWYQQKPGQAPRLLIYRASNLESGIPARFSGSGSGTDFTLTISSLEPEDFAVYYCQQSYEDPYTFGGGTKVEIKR is less than 0.0001 s⁻¹
# output Criterion not met

# input Find out if reported koff for HC4/LC5 (antibody, human IgG1, kappa, V domains shown, Humanized anti-TROP2 antibody; also called DP002-HC4LC5; DP002HC4LC5) VH: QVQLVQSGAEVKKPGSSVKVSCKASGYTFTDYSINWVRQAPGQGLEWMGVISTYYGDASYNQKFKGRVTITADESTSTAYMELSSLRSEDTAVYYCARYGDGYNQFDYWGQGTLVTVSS VL: DIQMTQSPSSLSASVGDRVTITCRVSESVDSYGNNFMHWYQQKPGKAPKLLIYRASNLESGVPSRFSGSGSGTDFTFTISSLQPEDIATYYCQQSYEDPYTFGGGTKLEIKR is less than 0.0001 s⁻¹
# output Criterion not met
